Biological target: Bombesin receptor subtype-3 (Mus musculus) (UniProt O54798)
Sequence (whole entry): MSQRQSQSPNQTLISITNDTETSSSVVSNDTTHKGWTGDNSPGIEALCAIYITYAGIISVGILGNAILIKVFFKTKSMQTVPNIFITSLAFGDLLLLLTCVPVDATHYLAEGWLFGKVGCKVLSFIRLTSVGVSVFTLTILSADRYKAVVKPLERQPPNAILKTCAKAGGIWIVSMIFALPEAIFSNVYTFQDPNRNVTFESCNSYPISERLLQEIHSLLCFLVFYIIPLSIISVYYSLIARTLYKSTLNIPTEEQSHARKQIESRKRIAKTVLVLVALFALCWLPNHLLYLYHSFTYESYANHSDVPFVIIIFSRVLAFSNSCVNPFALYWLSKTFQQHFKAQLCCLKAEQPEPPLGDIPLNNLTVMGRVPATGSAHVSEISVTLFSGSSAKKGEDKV
Experiment: Agonistic activity at mouse BRS3 expressed in HEK293AEO cells at 10 uM by aequorin bioluminescence assay relative to dY peptide
Format: functional, cell-based
value type: Activity (%)

Cc1ccccc1Cc1cnc(CCc2ccc(-c3ccccc3C(=O)O)cc2)[nH]1 : 106
CC(C)CCc1cnc(CCc2ccc(-c3ccccc3C(=O)O)cc2)[nH]1 : 111
O=C(O)c1ccccc1-c1ccc(CCc2ncc(CC3CC3)[nH]2)cc1 : 144
CCCCc1cnc(C(Cc2ccc(-c3ccccc3C(=O)O)cc2)C(C)C)[nH]1 (stereo not given) : 87
O=C(O)c1ccccc1-c1ccc(CCc2ncc(CC3CCOCC3)[nH]2)cc1 : 106
